System: Trypanosoma brucei
TEST SUMMARY: DNDI: Inhibition of Human African Trypanosomiasis, SBRI 427, in vitro at 2 ug.mL-1
Format: functional
About 390 (8.9%) of roughly 4,400 compounds showed an effect of 50% or more. Many of the other results were omitted from the sample, so strong results are more common in it than they were.
MEASURED PROPERTY: % inhibition (%)
Numbers only, in %.

Recorded % inhibition, per entry:
• Cc1ccc(/C(=N/O)NC2CCCCC2)c(Oc2cc(Cl)ccc2Cl)n1 = 97
• Cc1ccc(/C(=N/O)NCC2CCCCC2)c(Oc2cc(Cl)ccc2Cl)n1 = 51
• CC1CCCC(NCc2coc(-c3ccccc3Br)n2)C1C (stereo unspecified) = 98

The following molecules each have a reported value; give each one's % inhibition.
1. CC1CC(C)CN(/C(=N\O)c2ccc(Oc3ccc(Cl)cc3)nc2)C1 (stereo unspecified)
2. Cc1ccc(/C(=N/O)NCC2CCCCC2)c(Oc2c(F)c(F)cc(F)c2F)n1
3. CC1CCCCC1NCc1coc(-c2ccccc2Cl)n1 (stereo unspecified)
4. Cc1ccc(/C(=N/O)NCC2CCCO2)c(Oc2ccc(F)c(F)c2)n1 (stereo unspecified)
5. Cc1ccc(/C(=N/O)NC2CCC2)c(Oc2ccc(Cl)cc2)n1
6. Cc1ccc(/C(=N/O)NC2CC2)c(Oc2ccc(Cl)cc2)n1
7. Cc1ccc(/C(=N/O)NC2CCc3ccccc32)c(Oc2cc(Cl)ccc2Cl)n1 (stereo unspecified)

1: 0; 2: 12; 3: -2; 4: 8; 5: -9; 6: 9; 7: -38

Item Cc1ccc(/C(=N/O)NCC2CCCO2)c(Oc2ccc(F)c(Cl)c2)n1 (stereo unspecified) has what recorded % inhibition?
42
